test: Stability of the compound in mouse pooled hepatocytes assessed as parent compound remaining incubated for 60 mins; assay type: ADME, cell-based, Hepatocyte; conditions: read-out: Stabilty
property_name: remaining at 1 h (%)
Provide the reading as a plain figure in %.

Data request, read-out remaining at 1 h, for "COc1cc2nc(-c3ccc(C)o3)cc(NCC3CCN(c4ncc(C(=O)NO)cn4)CC3)c2cc1OC" 14.3

----------
molecular target: CYP1A2 (Homo sapiens); assay: Inhibition of CYP1A2 in human liver microsomes at 10 uM incubated for 10 mins in presence of NADPH by LC-MS/MS analysis relative to control; assay type: ADME
Sequence (P05177 whole entry): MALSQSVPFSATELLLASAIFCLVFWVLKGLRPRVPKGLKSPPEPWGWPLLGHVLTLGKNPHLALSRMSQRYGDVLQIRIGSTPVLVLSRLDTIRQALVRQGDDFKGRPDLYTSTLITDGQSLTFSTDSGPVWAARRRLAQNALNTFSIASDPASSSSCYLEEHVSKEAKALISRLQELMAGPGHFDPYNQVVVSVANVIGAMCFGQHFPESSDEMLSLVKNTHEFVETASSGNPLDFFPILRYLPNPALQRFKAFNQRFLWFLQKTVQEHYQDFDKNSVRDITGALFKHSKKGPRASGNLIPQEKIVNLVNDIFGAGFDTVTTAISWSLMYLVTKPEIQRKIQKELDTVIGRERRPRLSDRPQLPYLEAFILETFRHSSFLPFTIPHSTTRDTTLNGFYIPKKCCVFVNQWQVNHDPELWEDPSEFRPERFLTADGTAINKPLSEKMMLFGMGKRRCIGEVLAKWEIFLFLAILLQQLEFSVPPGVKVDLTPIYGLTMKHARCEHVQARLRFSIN
property_name: inhibition at 10 min, 10 µM (%)
Provide the reading as a plain figure in %.

Data request, read-out inhibition at 10 min, 10 µM, for "COc1cc2nc(-c3ccc(C)o3)cc(NCC3CCN(c4ncc(C(=O)NO)cn4)CC3)c2cc1OC" 58.8

----------
tested on: THLE-2; test: Cytotoxicity against human THLE-2 cells assessed as decrease in cell viability measured after 72 hrs by Vialight-plus cell proliferation assay; assay type: cell-based; conditions: thle-2, 72 h
Would you please tag the item Satisfied when its pLC50 is 5 or above, and Not satisfied when it is below?

# example entries with known answers
>>> label_class("COc1cc2c(NCC3CCC(C(=O)NO)CC3)cc(-c3ccc(C)o3)nc2cc1OCCCN1CCCC1 (centres undefined)")
"Not satisfied"
>>> label_class("Cc1[nH]c2ccccc2c1CCNCc1ccc(/C=C/C(=O)NO)cc1")
"Satisfied"
>>> label_class("COc1cc2nc(-c3ccc(C)o3)cc(NCC3C4CCC3CN(c3ncc(C(=O)NO)cn3)C4)c2cc1OC (centres undefined)")
"Satisfied"
>>> label_class("COc1cc2c(NC3CCN(c4ncc(C(=O)NO)cn4)CC3)cc(C)nc2cc1OCCCN1CCCC1")
"Not satisfied"
>>> label_class("COc1cc2nc(C3CCCCC3)cc(NCC3CCN(c4ncc(C(=O)NO)cn4)CC3)c2cc1OC")
"Satisfied"
>>> label_class("COc1cc2c(NCC3CCN(c4ncc(C(=O)NO)cn4)CC3)cc(-c3ccc(C)o3)nc2cc1OCC1CCNCC1")
"Not satisfied"

Please examine the following record next.
Exam item: decide whether the reported pLC50 for "COc1cc2nc(-c3ccc(C)o3)cc(NCc3ccc(C(=O)NO)cc3)c2cc1OC" is at least 5. Satisfied

----------
Each entry below carries its reported LC50.
tested on: THLE-2; assay: Cytotoxicity against human THLE-2 cells assessed as decrease in cell viability measured after 72 hrs by Vialight-plus cell proliferation assay; type: cell-based; conditions: thle-2, 72 h
Provide the reading as a plain figure in nM.

# example entries with known answers
>>> value_measured("COc1cc2nc(-c3ccc(C)o3)cc(NCC3CCN(Cc4ccc(C(=O)NO)s4)CC3)c2cc1OC")
2227
>>> value_measured("COc1cc2nc(C3CCCCC3)cc(NCC3CCN(c4ncc(C(=O)NO)cn4)CC3)c2cc1OC")
2298
>>> value_measured("COc1cc2nc(-c3ccc(C)o3)cc(NC3CCN(c4ncc(C(=O)NO)cn4)CC3)c2cc1OC")
3090

Data request, read-out LC50, for "COc1cc2c(NCC3CCN(c4ccc(C(=O)NO)cc4)CC3)cc(-c3ccc(C)o3)nc2cc1OCCCN1CCCC1" 9700
